compound: CC(=O)c1ccc(Cc2cn(-c3ccc(F)cc3)c3ncccc3c2=O)cc1
melting point: 227 to 229 °C
--
compound: Cc1cccc(NC(=O)c2ccccc2CN2C(=O)C3(COc4cc5c(cc43)CCO5)c3ccccc32)c1C (centres undefined)
melting point: > 230 °C
--
compound: Cc1nc2ccccc2n2c(-c3cc(OCC(F)c4ccccn4)ccc3Cl)nnc12 (centres undefined)
melting point: 155 to 157 °C
--
compound: O=C(O)C(OCc1ccc(-c2ccc(Cl)cc2)cc1)c1ccccc1 (centres undefined)
melting point: 119 to 121 °C
--
compound: CCCc1c(OCCCCCOc2ccc3cc(OCC(=O)O)ccc3c2CCC(=O)O)ccc2c1OCCC2=O
melting point: 160 to 163 °C
--
compound: COc1ccc(F)c2c(OC)c(C=O)ccc12
melting point: 129 to 131 °C
--
compound: CCC(O)CN1N=C(c2ccc(Cl)cc2)C2CCC2C1=O (centres undefined)
melting point: 116 to 119 °C
--
compound: CN(C)CCNC(=O)c1ccc(-c2cccc(CSCCOc3ccccc3)c2)cc1
melting point: 75 to 78 °C
--
compound: O=C(CCc1ccccc1)Nc1cc(-c2nnc(CCc3cccc(F)c3)o2)ccn1
melting point: 171 to 172 °C

====

The reader will find reported melting point values listed item by item below.
endpoint-name: melting point

compound: Cc1nc(C(F)(F)F)ccc1C(=O)C1=C(O)C2CCC(C2)C1=O (stereo unspecified)
endpoint-name: melting point
value: 75 to 77 °C

compound: Nc1cccc(C2CN3CCSC3=N2)c1 (stereo unspecified)
endpoint-name: melting point
value: 177 to 179 °C

compound: CC(C)N(CCN1C(=O)C(=O)c2ccccc21)C(C)C
endpoint-name: melting point
value: 60 to 61 °C

compound: O=C1Cc2c(OCCNCc3ccccc3)ccc(Cl)c2N1
endpoint-name: melting point
value: 161 to 163 °C

compound: COC(=O)c1ccc(-c2ccc(OC)c(OC)c2)cc1OC
endpoint-name: melting point
value: 96 to 97.5 °C

compound: CCOC(=O)c1sc(C(=O)OCC)c2c1OC=CCO2
endpoint-name: melting point
value: 198 to 200 °C

====

The reader will find reported melting point values listed item by item below.

compound: CCCCSCC(=O)c1cc2[nH]c(=O)[nH]c2cc1Cl
melting point: 199 to 201 °C

compound: O=S(=O)(c1ccc(S(=O)(=O)C2CCCCC2)nc1)C1CCCCC1
melting point: 213 °C

compound: CCC[C@H](NC(=O)Cc1cc(F)cc(F)c1)C(=O)Nc1ncc(-c2ccc(OC)cc2COC(C)C)s1
melting point: 73.9 °C

compound: OCc1c(F)cccc1-c1ccc2nc(-c3ccc(Cl)cc3)cn2c1
melting point: 229 to 230 °C

compound: CNc1cc(F)ccc1C(=O)CS(C)(=O)=O
melting point: 144 to 145 °C

compound: CNc1cccc(-c2csc(NC(=N)N)n2)c1
melting point: 198 to 200 °C

compound: CS(=O)(=O)OCC1CCN(c2ccc(Br)cc2)C1=O (stereo not given)
melting point: 120 to 123 °C

compound: COc1cc2c(cc1OCc1ccccc1)[nH]c1cc(-c3ccccc3Cl)c3c(c12)C(=O)NC3=O
melting point: 260 to 264 °C

compound: CC(=O)Cc1nc(CN2CCCCC2)no1
melting point: 66 to 67 °C

compound: CNc1nc(-c2ccc(OCc3ccccc3)cc2)no1
melting point: 148 to 150 °C

compound: Cc1cccc(C)c1NCCCNCC(O)COc1ccc(O)cc1 (stereo not given)
melting point: 97 to 98 °C

compound: CCCCCCCCCNC(=O)Nc1ccccc1C(=O)NC1CCN(C(c2ccccc2)c2ccccc2)CC1
melting point: 149 to 150 °C

compound: Cc1ccc(N2CCC3CCc4cnccc4C3=N2)cc1 (stereo not given)
melting point: 158 to 159 °C

compound: Cc1cc2c3c(c1)nc(N1CCN(C)CC1)n3CCC2
melting point: 164 to 165 °C

compound: CCOC(=O)CNC(=O)c1ccc(CCC2CNc3nc(N)nc(O)c3C2)s1 (stereo not given)
melting point: 152 to 160 °C

compound: Fc1ccc(SCCCN2CCN(c3ncc(F)cn3)CC2)cc1
melting point: 68 to 70 °C

compound: CC(C)CCCC(C)C1CC(=O)C2=C3C(F)CC4CC(OC(=O)c5ccccc5)CCC4(C)C3CCC21C (stereo not given)
melting point: 144 to 145 °C

compound: CC(C)c1nccn1-c1ccc([N+](=O)[O-])cc1SC(Cl)(Cl)Cl
melting point: 135 °C

compound: CS(=O)(=O)c1ccc(C(CC2CCCC2)C(=O)Nc2ccccn2)cc1C#N (stereo not given)
melting point: 87 to 90 °C

compound: COc1ccccc1CS(=O)(=O)Cc1ccccc1OC
melting point: 90 to 92 °C

compound: CCCCCN1C(=O)C2(COc3cc(F)c(Cl)cc32)c2ccccc21 (stereo not given)
melting point: 74 to 76 °C

compound: COc1ccc(-c2cc(=O)[nH]nc2-c2ccc(OC)c(F)c2)cc1F
melting point: 205 to 206 °C

compound: O=C1Cc2c(ccc3c(CCC4CCN(Cc5ccccc5)CC4)noc23)N1
melting point: 188 to 189 °C

compound: CC(C)C(NC(=O)OCc1csc(N2CCCC2)n1)C(=O)NC(Cc1ccccc1)CC(O)C(Cc1ccccc1)NC(=O)OCc1cncs1 (stereo not given)
melting point: 146 to 148 °C

compound: CS(=O)(=O)c1ccc(-c2cnn(-c3ccc(Cl)s3)c(=O)c2-c2ccc(Cl)cc2)cc1
melting point: 249 to 251 °C

compound: Nc1nc2ccccc2c2c1nc1n2CCOC1
melting point: 258 to 259 °C

compound: COc1ccc2oc(Cn3cnc4c(N)ncnc43)c(-c3ccccc3)c(=O)c2c1
melting point: 197 to 198 °C

compound: CC12CCC3C(CCC4CC(=O)CC(C)(O)C43C)C1C(O)CC2=O (stereo not given)
melting point: 227 to 229 °C

compound: CC(C)OC(=O)N1CCN(c2ccn3ncc(-c4cccn(C)c4=O)c3n2)CC1
melting point: 206 to 207 °C

compound: COc1cc(C(=O)N(C(C)C)C2CCCCC2)ccc1Br
melting point: 104 to 107 °C

compound: Cn1cc(O)c(=O)c2ccc(OCC(F)(F)F)cc21
melting point: 151 °C

compound: COc1ccc(CC(=O)NOCc2ccccc2)cc1
melting point: 98 to 99 °C

compound: CCOC(=O)C(Cc1ccc(-c2ccco2)cc1)NC(=O)C1(NC(=O)OC(C)(C)C)CCCC1 (stereo not given)
melting point: 107 to 112 °C

compound: C=COC(=O)N1C[C@@H]2C(=O)CCC(c3ccccc3)(c3ccccc3)[C@@H]2C1 (racemic)
melting point: 178 °C

compound: Nc1ccc2nc3n(c2c1)CC(C(=O)OCc1ccccc1)NC3 (stereo not given)
melting point: 115 to 118 °C

compound: O=Cc1cccc(COc2cccc(-c3ccsc3)c2)c1
melting point: 62 to 63 °C

compound: Cc1[nH]c2ccc(CCN(CC(C)C)CC(C)C)cc2c1C(=O)OCc1ccccc1
melting point: 134 to 135 °C

compound: BrCc1c(Br)c(CBr)c(Br)c(CBr)c1Br
melting point: 220 to 223 °C

compound: O=C(NCCSCc1cccc(NC(=O)C2CC2)c1)c1c(Cl)cccc1Cl
melting point: 46 to 47 °C

compound: Nc1nc(N)c2c(ccc3c2ccn3Cc2ccc(OC(F)(F)F)cc2)n1
melting point: 205 to 208 °C

====

compound: COC(=O)C1=CC=C(CC2=CCc3ccc(NC(=O)C(F)(F)F)cc32)C(OC)(OC)C1
melting point: 198 to 200 °C
--
compound: COc1nccnc1NS(=O)(=O)c1scc(Cl)c1Cl
melting point: 152 °C
--
compound: CN1C(=O)OC[C@@H]1Cc1ccc([N+](=O)[O-])cc1
melting point: 146 to 147 °C
--
compound: COc1ccccc1NC(=O)Nc1nc(Oc2ccc3ccccc3c2)nc(N(CCC(=O)O)Cc2ccc(C(F)(F)F)cc2C(F)(F)F)n1
melting point: 192 °C
--
compound: Cc1ccc(-c2ncc(N3CCC(O)CC3)nc2-c2ccc(C)cc2)cc1
melting point: 176 to 178 °C
--
compound: C=CCN(CC=C)Cc1c(-c2ccccc2)sc(N)c1C(=O)c1ccc(Cl)cc1
melting point: 155 to 156 °C
--
compound: O=C(Nc1ccc(NCc2ccccc2)cc1)C(=O)N1CCC(Cc2ccc(F)cc2)CC1
melting point: 145 to 148 °C
--
compound: CC(CC#CC(C)(C)O[Si](C)(C)C(C)(C)C)C1=CCC2C3=CC=C4CC(O[Si](C)(C)C(C)(C)C(C)C)CCC4(C)C3CCC12C (centres undefined)
melting point: 62 to 66 °C
--
compound: FC(F)(F)c1ccc(C#Cc2ccc(C#Cc3cc4ccccc4s3)s2)cc1
melting point: 149 to 150 °C
